# TARGET OR SYSTEM: Met (Homo sapiens (Human), UniProt P08581)
# Sequence (P08581 25-1390): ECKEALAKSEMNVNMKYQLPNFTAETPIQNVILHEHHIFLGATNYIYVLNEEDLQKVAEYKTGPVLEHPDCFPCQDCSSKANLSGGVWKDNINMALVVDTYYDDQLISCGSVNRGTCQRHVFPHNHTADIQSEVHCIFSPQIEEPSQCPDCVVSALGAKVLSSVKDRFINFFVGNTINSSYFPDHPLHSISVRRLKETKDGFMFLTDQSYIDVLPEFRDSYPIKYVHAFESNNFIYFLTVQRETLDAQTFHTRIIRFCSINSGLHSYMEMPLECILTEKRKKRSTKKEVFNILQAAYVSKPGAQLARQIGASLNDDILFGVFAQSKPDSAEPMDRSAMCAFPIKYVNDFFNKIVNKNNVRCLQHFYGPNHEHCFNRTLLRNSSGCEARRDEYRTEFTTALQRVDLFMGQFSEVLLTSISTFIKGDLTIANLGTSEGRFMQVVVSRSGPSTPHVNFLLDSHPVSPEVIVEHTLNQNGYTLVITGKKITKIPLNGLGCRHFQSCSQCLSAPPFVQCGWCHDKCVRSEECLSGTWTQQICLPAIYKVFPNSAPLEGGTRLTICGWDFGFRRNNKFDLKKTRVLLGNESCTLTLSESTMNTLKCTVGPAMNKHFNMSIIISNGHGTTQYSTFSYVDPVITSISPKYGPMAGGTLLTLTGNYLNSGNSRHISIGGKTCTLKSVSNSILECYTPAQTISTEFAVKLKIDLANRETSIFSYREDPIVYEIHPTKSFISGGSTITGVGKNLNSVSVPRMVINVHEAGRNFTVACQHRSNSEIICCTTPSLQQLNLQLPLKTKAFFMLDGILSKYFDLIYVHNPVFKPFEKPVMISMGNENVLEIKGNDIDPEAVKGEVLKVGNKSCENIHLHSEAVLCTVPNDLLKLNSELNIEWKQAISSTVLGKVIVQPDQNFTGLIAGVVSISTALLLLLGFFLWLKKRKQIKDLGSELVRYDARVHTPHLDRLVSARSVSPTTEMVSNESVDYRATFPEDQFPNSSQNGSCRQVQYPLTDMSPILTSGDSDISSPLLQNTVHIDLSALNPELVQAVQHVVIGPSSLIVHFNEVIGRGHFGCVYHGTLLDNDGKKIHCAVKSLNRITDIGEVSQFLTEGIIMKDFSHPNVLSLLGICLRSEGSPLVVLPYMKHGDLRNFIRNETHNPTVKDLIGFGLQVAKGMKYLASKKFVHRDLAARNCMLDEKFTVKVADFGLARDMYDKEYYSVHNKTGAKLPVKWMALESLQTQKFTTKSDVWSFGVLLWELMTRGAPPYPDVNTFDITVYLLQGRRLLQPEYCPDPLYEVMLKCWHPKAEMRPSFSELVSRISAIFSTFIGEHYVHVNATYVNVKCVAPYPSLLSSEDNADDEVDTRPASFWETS
# TEST DESCRIPTION: Met autophosphorylation ELISA in PC-3 cells
# CONDITION SUMMARY: cellular, HGF stimulated, read-out: c-Met IC50
A collection of compounds and their measured IC50

Completed entries (count: 3):
{"COMPOUND": "CNC(=O)c1ccc2c(Oc3ccc(NC(=O)C4(C(=O)Nc5ccc(F)cc5)CC4)cc3)ccnc2c1 [Compound 165]", "TARGET OR SYSTEM": "Met (Homo sapiens (Human), UniProt P08581)", "IC50": "≤ 10 nM"}
{"COMPOUND": "COc1cc2nccc(Oc3ccc(NC(=O)C4(C(=O)Nc5ccc(F)cc5)CC4)cc3)c2cc1-c1ccc(C)o1 [Compound 180]", "TARGET OR SYSTEM": "Met (Homo sapiens (Human), UniProt P08581)", "IC50": "10 to 100 nM"}
{"COMPOUND": "O=C(Nc1ccc(F)cc1)C1(C(=O)Nc2ccc(Oc3ccnc4ccc(-c5nnco5)cc34)cc2)CC1 [Compound 221]", "TARGET OR SYSTEM": "Met (Homo sapiens (Human), UniProt P08581)", "IC50": "100 to 300 nM"}

Q) Item COc1cc2nccc(Oc3ccc(NC(=O)C4(C(=O)Nc5ccc(F)cc5)CC4)cc3)c2cc1-c1cnco1 [Compound 192] has what recorded IC50?
A) 10 to 100 nM

Q) Fill in: IC50 of CNC(=O)c1cc2c(Oc3ccc(NC(=O)C4(C(=O)Nc5ccc(F)cc5)CC4)cc3)ccnc2cc1OCCO [Compound 110] is ___
A) ≤ 10 nM

Q) Item CNC(=O)c1cc2c(Oc3ccc(NC(=O)C4(C(=O)Nc5ccc(F)cc5)CC4)cc3F)ccnc2cc1OC [Compound 135] has what recorded IC50?
A) ≤ 10 nM

Q) Which value of IC50 has been reported for COc1cc2nccc(Oc3ccc(NC(=O)C4(C(=O)Nc5ccc(F)cc5)CC4)cc3Cl)c2cc1C(=O)O [Compound 130] in the records?
A) > 300 nM
